Data origin, for the record: patent US20140323418A1

assayTarget: full length active recombinant SYK enzyme (Homo sapiens)
Construct: full length active recombinant SYK enzyme (Millipore, Calif.)
protocolNotes: Inhibition of Syk tyrosine phosphorylation activity (LANCE TR-FRET kinase assay)
conditionDescription: 1 nM SYK, 550 nM substrate, 100 μM ATP, 1 hour room temperature
pIC50: −log10 of the molar value.
measuredAttribute: pIC50

// below: answered molecules
> print(dat)
                                   molecule                               assaytarget  measuredattribute  reportedvalue
1  CCc1c(C)n(C)c2cccc(Nc3nc(N[C@@H]4CCCC[C@@H]4N)ncc3C(N)=O)c12  full length active recombinant SYK enzyme (Homo sapiens)              pIC50   6.00 to 7.00
2  Cc1cccc(Nc2nc(N[C@@H]3CC[C@@H](C(=O)N4CC(F)(F)C4)C[C@@H]3N)ncc2C(N)=O)c1 (racemic)  full length active recombinant SYK enzyme (Homo sapiens)              pIC50   7.00 to 8.00
3  CCn1ccc2c(Nc3nc(N[C@@H](CN)C4CC4)ncc3C(N)=O)cccc21  full length active recombinant SYK enzyme (Homo sapiens)              pIC50   8.00 to 9.00
4  Cc1cccc(Nc2nc(N[C@H](c3ccccc3)C3(N)CC3)ncc2C(N)=O)c1  full length active recombinant SYK enzyme (Homo sapiens)              pIC50   7.00 to 8.00
5  CC(C)[C@@H](Nc1ncc(C(N)=O)c(Nc2cccc(-n3nccn3)c2)n1)C1(N)CC1  full length active recombinant SYK enzyme (Homo sapiens)              pIC50   8.00 to 9.00

Kindly note: full length active recombinant SYK enzyme (Homo sapiens), `CCn1ccc2c(Nc3nc(NC[C@@H](N)CC(F)F)ncc3C(N)=O)cccc21` , pIC50 value reported: 8.00 to 9.00

Kindly note: full length active recombinant SYK enzyme (Homo sapiens), `Cc1cc(Nc2nc(N[C@@H]3CCCC[C@@H]3N)ncc2C(N)=O)sn1` , pIC50 value reported: 8.00 to 9.00

----------
The compounds listed here are annotated with their IC50.
assayTarget: full length active recombinant SYK enzyme (Homo sapiens, UniProt P43405)
Construct: full length active recombinant SYK enzyme (Millipore, Calif.)
protocolNotes: Inhibition of Syk tyrosine phosphorylation activity (LANCE TR-FRET kinase assay)
conditionDescription: 1 nM SYK, 550 nM substrate, 100 μM ATP, 1 hour room temperature

// below: answered compounds
> print(dat)
                                   compound   reportedvalue
1  CC(C)[C@@H](Nc1ncc(C(N)=O)c(Nc2cccc(-n3cccn3)c2)n1)C1(N)CC1      1 to 10 nM
2  Cc1ccc(Nc2ncc(C(N)=O)c(N[C@H]3CC[C@@H](N)CC3)n2)cc1    10 to 100 nM
3  Cn1ccc2c(Nc3nc(N[C@@H]4CCNC4)ncc3C(N)=O)cccc21    10 to 100 nM
4  Cn1ccc2c(Nc3nc(NC[C@@H](N)CC(F)F)ncc3C(N)=O)cccc21      1 to 10 nM
5  CC[C@@H](Nc1ncc(C(N)=O)c(Nc2cnn3ccccc23)n1)C(N)=O    10 to 100 nM
6  Cn1ccc2c(Nc3nc(N[C@@H]4CCCC(F)(F)[C@@H]4N)ncc3C(N)=O)cccc21    10 to 100 nM
7  NC(=O)c1cnc(N[C@@H]2CCCC(F)(F)[C@@H]2N)nc1Nc1cccc2c1ccn2CC(F)(F)F    10 to 100 nM
8  NC(=O)c1cnc(NC2CCCc3cccnc32)nc1Nc1cccc(-n2nccn2)c1 (racemic)  100 to 1000 nM

Kindly note: full length active recombinant SYK enzyme (Homo sapiens, UniProt P43405), `NC(=O)c1cnc(N[C@@H]2CCCC[C@@H]2NCCO)nc1Nc1cccc(-n2nccn2)c1` , IC50 value reported: 100 to 1000 nM

Kindly note: full length active recombinant SYK enzyme (Homo sapiens, UniProt P43405), `NC(=O)c1cnc(N[C@H]2[C@@H](N)CCCC2(F)F)nc1Nc1csc2ncccc12` , IC50 value reported: 10 to 100 nM

Kindly note: full length active recombinant SYK enzyme (Homo sapiens, UniProt P43405), `CCn1ccc2c(Nc3nc(N[C@@H]4CCCC(F)(F)[C@@H]4N)ncc3C(N)=O)cccc21` , IC50 value reported: 10 to 100 nM

Kindly note: full length active recombinant SYK enzyme (Homo sapiens, UniProt P43405), `Cn1ncc2c(Nc3nc(N[C@@H]4CCC[C@H](F)[C@@H]4N)ncc3C(N)=O)cccc21` , IC50 value reported: 10 to 100 nM

Kindly note: full length active recombinant SYK enzyme (Homo sapiens, UniProt P43405), `CC[C@@H](Nc1ncc(C(N)=O)c(Nc2cccc(C3=NCCCN3)c2)n1)C1(N)CC1` , IC50 value reported: 100 to 1000 nM

Kindly note: full length active recombinant SYK enzyme (Homo sapiens, UniProt P43405), `Cn1ccc2c(Nc3nc(NC[C@@H](N)CC(F)F)ncc3C(N)=O)ccnc21` , IC50 value reported: 1 to 10 nM

----------
The compounds listed here are annotated with their pIC50.
assayTarget: full length active recombinant SYK enzyme (Homo sapiens)
Construct: full length active recombinant SYK enzyme (Millipore, Calif.)
protocolNotes: Inhibition of Syk tyrosine phosphorylation activity (LANCE TR-FRET kinase assay)
conditionDescription: 1 nM SYK, 550 nM substrate, 100 μM ATP, 1 hour room temperature
pIC50: −log10 of the molar value.

// below: answered compounds
> print(dat)
                                   compound  reportedvalue
1  Cc1cccc(Nc2ncc(C(N)=O)c(NC3CCC(N)CC3)n2)c1 (stereo in doubt) [Example 246]   7.00 to 8.00
2  NC(=O)c1cnc(N[C@@H]2CCCC(F)(F)[C@@H]2N)nc1Nc1csc2ncccc12 [Example 31]   7.00 to 8.00
3  Cc1cccc(Nc2nc(N[C@@H]3CC[C@@H](C(=O)O)C[C@@H]3N)ncc2C(N)=O)c1 (racemic) [Example 187]   8.00 to 9.00
4  NC(=O)c1cnc(N[C@@H]2CCCC(F)(F)[C@@H]2N)nc1Nc1ccccc1 [Example 27]   6.00 to 7.00

Please fill in: pIC50 reported for Cn1ccc2c(Nc3nc(NC4(C#N)CC4)ncc3C(N)=O)cccc21 [Example 109] = 6.00 to 7.00

Please fill in: pIC50 reported for CC[C@@H](Nc1ncc(C(N)=O)c(Nc2cnc3ccccc3c2)n1)C1(N)CC1 [Example 154] = 8.00 to 9.00

Please fill in: pIC50 reported for CC[C@@H](Nc1ncc(C(N)=O)c(Nc2cc(C)ns2)n1)C(N)=O [Example 65] = 7.00 to 8.00

Please fill in: pIC50 reported for COc1ccc(Nc2ncc(C(N)=O)c(NC3CCC(N)CC3)n2)cn1 (stereo in doubt) [Example 248] = 6.00 to 7.00

Please fill in: pIC50 reported for NC(=O)c1cnc(N[C@H](c2ccccc2)C2(N)CC2)nc1Nc1cccc(-c2ncccn2)c1 [Example 150] = 7.00 to 8.00
